assay.target: BRD4 protein (Homo sapiens (Human), UniProt O60885)
method.notes: BRD4 protein degradation inducing action in LNCaP cells (immunofluorescence, 6 hr)
Assay type: cell-based
measurement.setup: anti-BRD4 fluorescence intensity
Classify: YES when DC50 is strictly less than 0.2 nM; NO when DC50 is not.

[
  {
    "compound": "CCc1ccc(NS(=O)(=O)c2ccc(CNC(=O)c3ccc(-c4ccc(C5=N[C@@H](CC(=O)OC)c6nnc(C)n6-c6sc(C)c(C)c65)cc4)cc3Cl)cc2)c2[nH]cc(C#N)c12",
    "category": "NO"
  },
  {
    "compound": "COC(=O)C[C@@H]1N=C(c2ccc(N3CC[C@@H](C(=O)NCc4ccc(S(=O)(=O)Nc5ccc(C)c6c(C#N)c[nH]c56)cc4)C3)cc2)c2c(sc(C)c2C)-n2c(C)nnc21",
    "category": "NO"
  },
  {
    "compound": "COC(=O)C[C@@H]1N=C(c2ccc(-c3ccc(C(=O)NCc4ccc(S(=O)(=O)Nc5ccc(C)c6c(C#N)c[nH]c56)cc4)nc3)cc2)c2c(sc(C)c2C)-n2c(C)nnc21",
    "category": "YES"
  },
  {
    "compound": "COC(=O)NC1N=C(c2ccc(-c3ccc(C(=O)NCc4ccc(S(=O)(=O)Nc5ccc(C)c6c(C#N)c[nH]c56)cc4)cc3)cc2)c2c(sc(C)c2C)-n2c(C)nnc21 (stereo not drawn)",
    "category": "NO"
  },
  {
    "compound": "Cc1sc2c(c1C)C(c1ccc(-c3ccc(C(=O)NCc4ccc(S(=O)(=O)Nc5ccc(C)c6c(C#N)c[nH]c56)cc4)cc3)cc1)=N[C@@H](CC(=O)OC(C)C)c1nnc(C)n1-2",
    "category": "YES"
  }
]

Turning now to a further compound:
INPUT: # strict comparison: is reported DC50 < 0.2 nM? input = COC(=O)C[C@@H]1N=C(c2ccc(-c3ccc(C(=O)NCc4ccc(S(=O)(=O)Nc5ccc(C)c6c(C#N)c[nH]c56)c(F)c4)cc3)cc2)c2c(sc(C)c2C)-n2c(C)nnc21
OUTPUT: YES
